These entries and their values trace back to ChEMBL document CHEMBL1153576.

Test system: Escherichia coli
assay details: Antibacterial activity against Escherichia coli ATCC 25922 after 16 to 22 hrs by broth dilution method
Assay type: functional
Below: a set of entries, each annotated with reported MIC.
# output: bare number, implied unit µg/mL

// known answers, use as guide
CC[C@H]1OC(=O)[C@H](C)[C@@H](O[C@H]2C[C@@](C)(OC)[C@@H](O)[C@H](C)O2)[C@H](C)[C@@H](O[C@@H]2O[C@H](C)C[C@H](N(C)C)[C@H]2O)[C@](C)(O)C[C@@H](C)CN(CCCNC(=O)NC(C)C)[C@H](C)[C@@H](O)[C@]1(C)O: 16
CC[C@H]1OC(=O)[C@H](C)[C@@H](O[C@H]2C[C@@](C)(OC)[C@@H](O)[C@H](C)O2)[C@H](C)[C@@H](O[C@@H]2O[C@H](C)C[C@H](N(C)C)[C@H]2O)[C@](C)(O)C[C@@H](C)CN(CCCNC(=O)Nc2ccc3ccccc3c2)[C@H](C)[C@@H](O)[C@]1(C)O: 16
CC[C@H]1OC(=O)[C@H](C)[C@@H](O[C@H]2C[C@@](C)(OC)[C@@H](O)[C@H](C)O2)[C@H](C)[C@@H](O[C@@H]2O[C@H](C)C[C@H](N(C)C)[C@H]2O)[C@](C)(O)C[C@@H](C)CN(CCCN(CCC#N)C(=S)Nc2cccc3ccccc23)[C@H](C)[C@@H](O)[C@]1(C)O: 8
CC[C@H]1OC(=O)[C@H](C)[C@@H](O[C@H]2C[C@@](C)(OC)[C@@H](O)[C@H](C)O2)[C@H](C)[C@@H](O[C@@H]2O[C@H](C)C[C@H](N(C)C)[C@H]2O)[C@](C)(O)C[C@@H](C)CN(CCCN(CCC#N)C(=S)NCCc2ccccc2)[C@H](C)[C@@H](O)[C@]1(C)O: 16
CC[C@H]1OC(=O)[C@H](C)[C@@H](O[C@H]2C[C@@](C)(OC)[C@@H](O)[C@H](C)O2)[C@H](C)[C@@H](O[C@@H]2O[C@H](C)C[C@H](N(C)C)[C@H]2O)[C@](C)(O)C[C@@H](C)CN(CCCN(CCC#N)C(=O)Nc2cccc3ccccc23)[C@H](C)[C@@H](O)[C@]1(C)O: 8

In the following, a different compound is considered.
INPUT: If you can, please state the reported MIC value of CC[C@H]1OC(=O)[C@H](C)[C@@H](O[C@H]2C[C@@](C)(OC)[C@@H](O)[C@H](C)O2)[C@H](C)[C@@H](O[C@@H]2O[C@H](C)C[C@H](N(C)C)[C@H]2O)[C@](C)(O)C[C@@H](C)CN(C)[C@H](C)[C@@H](O)[C@]1(C)O [AZITHROMYCIN] .
OUTPUT: 2

* * *

System: Staphylococcus aureus
assay details: Antibacterial activity against Staphylococcus aureus ATCC 29213 after 16 to 22 hrs by broth microdilution method
Type: functional
endpoint label: MIC (µg/mL)
# output: bare number, implied unit µg/mL

// known answers, use as guide
CC[C@H]1OC(=O)[C@H](C)[C@@H](O[C@H]2C[C@@](C)(OC)[C@@H](O)[C@H](C)O2)[C@H](C)[C@@H](O[C@@H]2O[C@H](C)C[C@H](N(C)C)[C@H]2O)[C@](C)(O)C[C@@H](C)CN(CCCN(CCC#N)C(=S)NCCCc2ccccc2)[C@H](C)[C@@H](O)[C@]1(C)O: 1
CC[C@H]1OC(=O)[C@H](C)[C@@H](O[C@H]2C[C@@](C)(OC)[C@@H](O)[C@H](C)O2)[C@H](C)[C@@H](O[C@@H]2O[C@H](C)C[C@H](N(C)C)[C@H]2O)[C@](C)(O)C[C@@H](C)CN(CCCNC(=S)NCCc2ccccc2)[C@H](C)[C@@H](O)[C@]1(C)O: 1
CC[C@H]1OC(=O)[C@H](C)[C@@H](O[C@H]2C[C@@](C)(OC)[C@@H](O)[C@H](C)O2)[C@H](C)[C@@H](O[C@@H]2O[C@H](C)C[C@H](N(C)C)[C@H]2O)[C@](C)(O)C[C@@H](C)CN(CCCN(CCC#N)C(=O)Nc2ccccc2)[C@H](C)[C@@H](O)[C@]1(C)O: 1

In the following, a different molecule is considered.
INPUT: If you can, please state the reported MIC value of `CC[C@H]1OC(=O)[C@H](C)[C@@H](O[C@H]2C[C@@](C)(OC)[C@@H](O)[C@H](C)O2)[C@H](C)[C@@H](O[C@@H]2O[C@H](C)C[C@H](N(C)C)[C@H]2O)[C@](C)(O)C[C@@H](C)CN(CCCN(CCC#N)C(=S)Nc2cccc3ccccc23)[C@H](C)[C@@H](O)[C@]1(C)O` .
OUTPUT: 4
